- MEASUREMENT TARGET: human recombinant TDO2 enzyme (Homo sapiens)
- Sequence (P48775 whole entry): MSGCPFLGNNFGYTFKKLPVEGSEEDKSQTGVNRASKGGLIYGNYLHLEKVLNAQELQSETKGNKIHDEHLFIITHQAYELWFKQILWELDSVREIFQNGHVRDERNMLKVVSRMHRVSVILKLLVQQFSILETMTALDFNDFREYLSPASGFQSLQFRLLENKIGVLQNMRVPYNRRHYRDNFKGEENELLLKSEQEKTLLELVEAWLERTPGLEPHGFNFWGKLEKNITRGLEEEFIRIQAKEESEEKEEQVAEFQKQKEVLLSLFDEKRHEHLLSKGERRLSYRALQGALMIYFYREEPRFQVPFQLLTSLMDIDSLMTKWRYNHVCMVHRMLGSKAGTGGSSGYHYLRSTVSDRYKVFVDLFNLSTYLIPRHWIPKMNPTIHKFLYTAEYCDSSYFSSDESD
- PROTOCOL TEXT: Assay for TDO2 enzymatic activity determination
- CONDITIONS: human recombinant TDO2, L-Trp 1 mM, room temperature one hour, kynurenine absorbance at 480 nm
Below is a list of entries, each paired with its recorded IC50 value.

Worked cases, answers included:
CC(C)C(=O)N1CCC(n2cc(-c3c[nH]c4cc(F)ccc34)cn2)CC1	1000 to 10000 nM
COCCC(=O)N1CCC(n2cc(-c3c[nH]c4cc(F)ccc34)cn2)CC1	1000 to 10000 nM
CC(=O)N1CC(n2cc(-c3c[nH]c4cc(F)ccc34)cn2)C1	1000 to 10000 nM
NC(=O)Cn1cc(-c2c[nH]c3cc(F)ccc23)cn1	1000 to 10000 nM
CN1CCC(n2cc(-c3c[nH]c4cc(F)ccc34)cn2)CC1	1000 to 10000 nM
O=C(O)[C@H]1C[C@@H](n2cc(-c3c[nH]c4cc(F)ccc34)cn2)C1	10000 to 100000 nM
CNCCn1cc(-c2c[nH]c3cc(F)ccc23)cn1	< 1000 nM
CN1CCC(Cn2cc(-c3c[nH]c4cc(F)ccc34)cn2)CC1	< 1000 nM

IC50 measured on OC(CN1CCC(Cn2cc(-c3c[nH]c4cc(F)ccc34)cn2)CC1)C(F)(F)F (centres unmarked) = < 1000 nM

Entry Fc1ccc2c(-c3cnn(CCN4CCNCC4)c3)c[nH]c2c1 — recorded IC50 = 1000 to 10000 nM

The reported value for NC(=O)[C@H]1C[C@H](n2cc(-c3c[nH]c4cc(F)ccc34)cn2)C1 in terms of IC50 is 1000 to 10000 nM
